# assay_procedure: Circular dichroism spectroscopy of helical conformational stability
# Assay type: physicochemical
# condition_label: 50 mM aqueous KF, pH 7.4, 20 μM peptide
measurement_name: Helical character by CD (in words)

* Ac-LWERIARLR-NH2 [B] | nonhelical signatures
* Ac-ELAELEWRL-NH2 | nonhelical signatures
